- target_under_test: Cathepsin B (Homo sapiens)
- assay_procedure: Inhibition of human cathepsin B
// reported pKi per item
FYI, pKi means -log10 of a concentration in mol per litre.

See these solved cases before continuing.
compound | readout_value
CCC(NC(=O)C(CC(C)C)NC(=O)OCc1ccccc1)C(=O)C(=O)NCCCCCO (centres undefined) | 6.55
CCC(NC(=O)C(CC(C)C)NC(=O)OCc1ccccc1)C(=O)C(=O)NCCCn1ccnc1 (centres undefined) | 5.00
CCC(NC(=O)C(CC(C)C)NC(=O)OCc1ccccc1)C(=O)C(=O)NCc1ccccc1 (centres undefined) | 5.70

Could you now consider this next compound?
Query: pKi; subject: CCC(NC(=O)C(CC(C)C)NC(=O)OCc1ccccc1)C(=O)C(=O)NCc1nccc2ccccc12 (centres undefined)
6.52

* * *

- target_under_test: Calpain-1 catalytic subunit (Homo sapiens)
- Sequence (P07384 whole entry): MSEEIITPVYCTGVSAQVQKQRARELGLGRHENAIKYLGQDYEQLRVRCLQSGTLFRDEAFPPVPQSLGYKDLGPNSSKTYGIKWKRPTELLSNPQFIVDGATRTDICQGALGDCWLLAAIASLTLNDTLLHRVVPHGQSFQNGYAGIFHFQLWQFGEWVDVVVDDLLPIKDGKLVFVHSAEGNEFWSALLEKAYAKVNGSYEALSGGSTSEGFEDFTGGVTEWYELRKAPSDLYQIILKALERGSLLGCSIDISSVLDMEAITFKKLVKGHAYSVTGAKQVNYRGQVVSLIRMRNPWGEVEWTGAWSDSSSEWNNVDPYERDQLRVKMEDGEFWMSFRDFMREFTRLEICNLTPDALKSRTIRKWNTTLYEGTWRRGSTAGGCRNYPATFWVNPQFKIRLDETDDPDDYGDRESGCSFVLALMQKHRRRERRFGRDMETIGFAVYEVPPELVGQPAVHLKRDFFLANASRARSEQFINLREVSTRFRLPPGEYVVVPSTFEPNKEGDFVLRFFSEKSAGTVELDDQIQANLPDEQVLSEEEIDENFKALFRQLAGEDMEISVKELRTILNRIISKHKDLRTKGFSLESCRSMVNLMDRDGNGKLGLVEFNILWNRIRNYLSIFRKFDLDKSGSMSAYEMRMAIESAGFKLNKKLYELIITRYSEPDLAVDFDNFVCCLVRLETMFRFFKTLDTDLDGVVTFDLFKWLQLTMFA
- assay_procedure: Inhibition of the cysteine protease human Calpain 1
readout: pKi
FYI, pKi means -log10 of a concentration in mol per litre.

compound | pKi
CCNC(=O)C(=O)C(CC)NC(=O)C(CC(C)C)NC(=O)C(c1ccccc1)c1ccccc1 (configuration not stated) | 5.30
CCC(NC(=O)C(CC(C)C)NC(=O)OCc1ccccc1)C(=O)C(=O)NCC(O)c1ccc(OC)cc1 (configuration not stated) | 6.62
CCC(NC(=O)C(CC(C)C)NC(=O)OCc1ccccc1)C(=O)C(=O)NCCO (configuration not stated) | 6.10
CCC(NC(=O)C(CC(C)C)NC(=O)OCc1ccccc1)C(=O)C(=O)NCC(O)c1cccc(Oc2cccc(C(F)(F)F)c2)c1 (configuration not stated) | 7.15
CC(C)CC(NC(=O)OCc1ccccc1)C(=O)NC(Cc1ccccc1)C(=O)C(=O)NCCCN1CCOCC1 (configuration not stated) | 6.92
CCC(NC(=O)C(CC(C)C)NC(=O)OCc1ccccc1)C(=O)C(=O)NCC(O)c1ccc(N(C)C)cc1 (configuration not stated) | 6.48
CC(C)CC(NC(=O)OCc1ccccc1)C(=O)NC(Cc1ccccc1)C(=O)C(=O)NCC(O)c1cccc(Oc2ccc(Cl)c(Cl)c2)c1 (configuration not stated) | 6.23
CCC(NC(=O)C(CC(C)C)NC(=O)OCc1ccccc1)C(=O)C(=O)NCCc1c[nH]c2ccccc12 (configuration not stated) | 6.52

Request - read-out pKi | tested on Calpain-1 catalytic subunit (Homo sapiens) | compound CC(C)CC(NC(=O)OCc1ccccc1)C(=O)NC(Cc1ccccc1)C(=O)C(=O)NCC(O)c1cccc(Oc2ccccc2)c1 (configuration not stated)
6.22

Request - read-out pKi | tested on Calpain-1 catalytic subunit (Homo sapiens) | compound CCC(NC(=O)C(CC(C)C)NC(=O)OCc1ccccc1)C(=O)C(=O)NCc1cc(OC)cc(OC)c1 (configuration not stated)
5.64

Request - read-out pKi | tested on Calpain-1 catalytic subunit (Homo sapiens) | compound CC(C)CC(NC(=O)OCc1ccccc1)C(=O)NC(Cc1ccccc1)C(=O)C(=O)NCCNC(=O)CCCC[C@@H]1SC[C@@H]2NC(=O)N[C@@H]21 (some centres not stated)
6.66

Request - read-out pKi | tested on Calpain-1 catalytic subunit (Homo sapiens) | compound CNC(=O)C(=O)C(Cc1ccccc1)NC(=O)C(CC(C)C)NC(=O)OCc1ccccc1 (configuration not stated)
6.46

Request - read-out pKi | tested on Calpain-1 catalytic subunit (Homo sapiens) | compound CC(C)CC(NC(=O)OCc1ccccc1)C(=O)NC(Cc1ccccc1)C(=O)C(=O)NCC(O)c1ccc(Oc2ccccc2)cc1 (configuration not stated)
6.70

Request - read-out pKi | tested on Calpain-1 catalytic subunit (Homo sapiens) | compound CCC(NC(=O)C(CC(C)C)NC(=O)OCc1ccccc1)C(=O)C(=O)NCCc1ccccn1 (configuration not stated)
6.39

* * *

- target_under_test: UniProt P07688
readout: pKi
FYI, pKi means -log10 of a concentration in mol per litre.

compound | pKi
CCNC(=O)C(=O)C(CC)NC(=O)C(CC(C)C)NC(=O)c1nccc2ccccc12 (configuration not stated) | 6.66

Query: pKi; subject: CCC(NC(=O)C(CC(C)C)NC(=O)C(c1ccccc1)c1ccccc1)C(=O)C(=O)NCC(O)c1ccccc1 (configuration not stated)
6.77

Query: pKi; subject: CCC(NC(=O)C(CC(C)C)NC(=O)OCc1ccccc1)C(=O)C(=O)NCC(O)c1ccc2ccccc2c1 (configuration not stated)
7.20

* * *

- target_under_test: Calpain-1 catalytic subunit (Homo sapiens, UniProt P07384)
- Sequence (P07384 whole entry): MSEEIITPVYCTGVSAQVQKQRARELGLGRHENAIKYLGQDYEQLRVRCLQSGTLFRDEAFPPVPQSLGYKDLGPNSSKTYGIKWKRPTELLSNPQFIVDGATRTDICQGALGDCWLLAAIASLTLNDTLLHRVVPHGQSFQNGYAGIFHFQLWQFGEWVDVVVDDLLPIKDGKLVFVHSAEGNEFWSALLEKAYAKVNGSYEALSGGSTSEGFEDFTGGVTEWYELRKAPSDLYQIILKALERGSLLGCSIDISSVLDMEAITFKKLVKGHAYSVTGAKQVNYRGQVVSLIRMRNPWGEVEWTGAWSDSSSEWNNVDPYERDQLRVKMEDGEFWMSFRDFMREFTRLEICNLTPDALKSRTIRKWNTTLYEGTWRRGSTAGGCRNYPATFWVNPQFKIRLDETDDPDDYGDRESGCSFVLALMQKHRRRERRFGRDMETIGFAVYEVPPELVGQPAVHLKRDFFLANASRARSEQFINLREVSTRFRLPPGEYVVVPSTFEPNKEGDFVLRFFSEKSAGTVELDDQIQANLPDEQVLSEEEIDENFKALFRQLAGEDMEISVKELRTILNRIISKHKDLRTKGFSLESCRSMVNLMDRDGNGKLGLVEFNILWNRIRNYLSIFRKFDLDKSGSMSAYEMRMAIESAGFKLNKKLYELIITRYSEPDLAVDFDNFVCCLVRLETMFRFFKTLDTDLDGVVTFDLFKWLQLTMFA
- assay_procedure: Inhibition of the cysteine protease human Calpain 1
// reported Ki per item
The figure you give is taken to be in nM; do not add the unit.

compound | Ki, nM
CCNC(=O)C(=O)C(CC)NC(=O)C(CC(C)C)NC(=O)Cc1cccc2ccccc12 (stereo not drawn) | 300

Query: Ki; subject: CC(C)CC(NC(=O)OCc1ccccc1)C(=O)NC(Cc1ccccc1)C(=O)C(=O)NCC(O)c1c(F)c(F)c(F)c(F)c1F (stereo not drawn)
700

Query: Ki; subject: CCC(NC(=O)C(CC(C)C)NC(=O)OCc1ccccc1)C(=O)C(=O)NCc1ccco1 (stereo not drawn)
800

* * *

- target_under_test: Cathepsin B (Homo sapiens, UniProt P07858)
- assay_procedure: Inhibition of human cathepsin B
// reported pKi per item
FYI, pKi means -log10 of a concentration in mol per litre.

See these solved cases before continuing.
compound | readout_value
CC(C)CC(NC(=O)OCc1ccccc1)C(=O)NC(Cc1ccccc1)C(=O)C(=O)NCC(O)c1ccccc1 (stereo unspecified) | 5.68
CCC(NC(=O)C(CC(C)C)NC(=O)OCc1ccccc1)C(=O)C(=O)NCC1CCCO1 (stereo unspecified) | 5.35
CCCC(NC(=O)C(CC(C)C)NC(=O)OCc1ccccc1)C(=O)C(=O)NCCCN1CCOCC1 (stereo unspecified) | 5.38
CCC(NC(=O)C(CC(C)C)NC(=O)OCc1ccccc1)C(=O)C(=O)NCCc1cccc(OC)c1 (stereo unspecified) | 6.51
CCNC(=O)C(=O)C(CC)NC(=O)C(CC(C)C)NC(=O)OCc1ccccc1 (stereo unspecified) | 5.62

Could you now consider this next compound?
Request - read-out pKi | tested on Cathepsin B (Homo sapiens, UniProt P07858) | compound CC(C)CC(NC(=O)OCc1ccccc1)C(=O)NC(Cc1ccccc1)C(=O)C(=O)NCCCN1CCOCC1 (stereo unspecified)
4.89
